test system: Colletotrichum truncatum; experiment: Antifungal activity against Colletotrichum capsici after 72 to 96 hrs by agar cup method; assay type: functional
READOUT_NAME: MIC

See these solved cases before continuing.
> print(dat)
                            molecule.smiles  readout.name  reported.measurement
1  COc1ccc2c(c1)C=C1C(=O)N(c3c(C)noc3/C=C/c3ccccc3)CN=C1O2           MIC              17 µg/mL
2  Cc1ccc2c(c1)C=C1C(=O)N(c3c(C)noc3/C=C/c3ccccc3)CN=C1O2           MIC              18 µg/mL
3  COc1ccc(/C=C/c2onc(C)c2N2CN=C3Oc4ccc(Br)cc4C=C3C2=O)cc1           MIC              12 µg/mL
4  Cc1noc(/C=C/c2ccccc2)c1N1CN=C2Oc3ccccc3C=C2C1=O           MIC              20 µg/mL

INPUT: Reported MIC, molecule COc1ccc(/C=C/c2onc(C)c2-n2c(C)nc3nc4ccc(Cl)cc4cc3c2=O)cc1 : ____
OUTPUT: 16 µg/mL

###

test system: Rattus norvegicus; experiment: Analgesic activity in Albino rat assessed as reaction time at 10 mg/kg, po after 1 hr by Hot plate test; format: functional
READOUT_NAME: Time (s)
Reply numerically in s, unit not repeated.

See these solved cases before continuing.
> print(dat)
                            molecule.smiles  unit.text  reported.measurement
1  Cc1ccc(/C=C/c2onc(C)c2N2CN=C3Oc4ccc(Cl)cc4C=C3C2=O)cc1          s                  19.1
2  COc1ccc(/C=C/c2onc(C)c2-n2c(C)nc3nc4ccc(Cl)cc4cc3c2=O)cc1          s                  25.1
3  COc1ccc(/C=C/c2onc(C)c2-n2c(C)nc3nc4ccccc4cc3c2=O)cc1          s                  21.7

INPUT: Reported Time, molecule Cc1noc(/C=C/c2ccccc2)c1N1CN=C2Oc3c(Cl)cc(Cl)cc3C=C2C1=O : ____
OUTPUT: 28.3

INPUT: # repeat for Cc1ccc(/C=C/c2onc(C)c2-n2c(C)nc3nc4ccccc4cc3c2=O)cc1
OUTPUT: 21.3

###

system: Rattus norvegicus; experiment: Analgesic activity in Albino rat assessed as reaction time at 10 mg/kg, po after 1 hr by Hot plate test; assay type: functional
READOUT_NAME: Time (s)
Reply numerically in s, unit not repeated.

See these solved cases before continuing.
> print(dat)
                            molecule.smiles  target.or.test.system  reported.measurement
1  COc1ccc2c(c1)c(CC(=O)O)c(C)n2C(=O)c1ccc(Cl)cc1      Rattus norvegicus                  21.8
2  Cc1noc(/C=C/c2ccccc2)c1-n1c(C)nc2nc3ccc(Cl)cc3cc2c1=O      Rattus norvegicus                  21.2
3  Cc1noc(/C=C/c2ccccc2)c1-n1c(C)nc2nc3ccccc3cc2c1=O      Rattus norvegicus                  14.8

INPUT: Reported Time, compound COc1ccc(/C=C/c2onc(C)c2N2CN=C3Oc4ccc(Br)cc4C=C3C2=O)cc1 : ____
OUTPUT: 18.8

INPUT: # repeat for COc1ccc2c(c1)C=C1C(=O)N(c3c(C)noc3/C=C/c3ccccc3)CN=C1O2
OUTPUT: 21.3
